All values here come from paper PMC7802075.

Study target: LmjIPCS (inositol phosphorylceramide synthase from L. major) (Leishmania major, UniProt E9AFX2)
Sequence (E9AFX2 1-338): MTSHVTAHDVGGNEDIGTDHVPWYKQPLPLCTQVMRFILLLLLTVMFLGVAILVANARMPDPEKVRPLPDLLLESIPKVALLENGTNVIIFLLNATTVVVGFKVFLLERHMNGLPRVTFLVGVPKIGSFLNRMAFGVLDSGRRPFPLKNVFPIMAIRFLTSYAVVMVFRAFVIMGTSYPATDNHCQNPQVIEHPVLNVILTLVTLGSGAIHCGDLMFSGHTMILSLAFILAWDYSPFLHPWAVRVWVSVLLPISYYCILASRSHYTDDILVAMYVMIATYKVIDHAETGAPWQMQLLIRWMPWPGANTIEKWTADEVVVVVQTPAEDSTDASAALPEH
Assay comment: biochemical
Format: biochemical
Parameters: dose or concentration left out as unconfirmed
Condition info: read-out: inhibition LmjIPCS
Outcome label depends on inhibition relative to 10%: at/above gives Met, below gives Not met.

[[record]]
molecule = "C1CCC(C(CC2CCCCN2)C2CCCCC2)CC1 (stereo not shown) [PERHEXILINE]"
cat = "Met"

[[record]]
molecule = "CC1Cc2ccccc2N1NC(=O)c1ccc(Cl)c(S(N)(=O)=O)c1 (stereo not shown) [INDAPAMIDE]"
cat = "Not met"

[[record]]
molecule = "CC(=O)O[C@H]1C[C@@]2(C)[C@@H](C[C@@H](O)[C@H]3[C@@]4(C)CC[C@@H](O)[C@@H](C)[C@@H]4CC[C@@]32C)/C1=C(\\CCC=C(C)C)C(=O)O [FUSIDIC ACID]"
cat = "Not met"

[[record]]
molecule = "COC(=O)C1=C(C)NC(C)=C(C(=O)OCCN(C)Cc2ccccc2)C1c1cccc([N+](=O)[O-])c1 (stereo not shown) [NICARDIPINE]"
cat = "Not met"

[[record]]
molecule = "CN1C(C(=O)Nc2ccccn2)=C(O)c2ccccc2S1(=O)=O [PIROXICAM]"
cat = "Met"

[[record]]
molecule = "C#C[C@]1(O)CC[C@H]2[C@@H]3CCC4=Cc5oncc5C[C@]4(C)[C@H]3CC[C@@]21C [DANAZOL]"
cat = "Met"

[[record]]
molecule = "COc1ccc2cc3[n+](cc2c1OC)CCc1cc2c(cc1-3)OCO2 [BERBERINE]"
cat = "Not met"

[[record]]
molecule = "O=C(/C=C/c1ccc(O)cc1)c1ccc(O)cc1O [ISOLIQUIRITIGENIN]"
cat = "Met"

[[record]]
molecule = "CC(C)=CCC/C(C)=C\\CO [NEROL]"
cat = "Met"

[[record]]
molecule = "CC(C)Cn1c(=O)n(C)c(=O)c2[nH]cnc21 [ISOBUTYLMETHYLXANTHINE]"
cat = "Met"

[[record]]
molecule = "CCCCCCCCCCCCCCCCOP(=O)([O-])OCC[N+](C)(C)C [miltefosine, reference compound]"
cat = "Not met"

[[record]]
molecule = "[H]/N=C(/N)N[C@H]1[C@H](O)[C@@H](O)[C@H](O[C@@H]2O[C@@H](C)[C@](O)(C=O)[C@H]2O[C@@H]2O[C@@H](CO)[C@H](O)[C@@H](O)[C@@H]2NC)[C@@H](N/C(N)=N\\[H])[C@@H]1O [STREPTOMYCIN]"
cat = "Not met"

[[record]]
molecule = "O=C(C1CCCCC1)N1CC(=O)N2CCc3ccccc3C2C1 (stereo not shown) [PRAZIQUANTEL]"
cat = "Not met"

[[record]]
molecule = "CCCC(=O)Nc1ccc(OCC(O)CNC(C)C)c(C(C)=O)c1 (stereo not shown) [ACEBUTOLOL]"
cat = "Not met"

[[record]]
molecule = "COc1ccc2c(c1OC)C(=O)O[C@@H]2[C@H]1c2c(cc3c(c2OC)OCO3)CCN1C [NOSCAPINE]"
cat = "Met"

[[record]]
molecule = "O=C(O)Cc1ccccc1Nc1c(Cl)cccc1Cl [DICLOFENAC]"
cat = "Not met"

[[record]]
molecule = "COC(=O)Nc1nc2ccc(Sc3ccccc3)cc2[nH]1 [FENBENDAZOLE]"
cat = "Met"

[[record]]
molecule = "CCCCC1(COC(=O)CCC(=O)O)C(=O)N(c2ccccc2)N(c2ccccc2)C1=O [SUXIBUZONE]"
cat = "Not met"

[[record]]
molecule = "C=CCc1ccc(O)c(OC)c1 [EUGENOL]"
cat = "Not met"

[[record]]
molecule = "Cc1cnc(NC(=O)C2=C(O)c3ccccc3S(=O)(=O)N2C)s1 [MELOXICAM]"
cat = "Met"

[[record]]
molecule = "NCC(=O)CCC(=O)O [AMINOLEVULINIC ACID]"
cat = "Met"

[[record]]
molecule = "COc1ccc([C@@H]2Sc3ccccc3N(CCN(C)C)C(=O)[C@@H]2OC(C)=O)cc1 [DILTIAZEM]"
cat = "Met"

[[record]]
molecule = "Nc1ncn([C@@H]2O[C@H](CO)[C@@H](O)[C@H]2O)c(=O)n1 [AZACITIDINE]"
cat = "Met"

[[record]]
molecule = "COc1ccc(NS(=O)(=O)c2ccc(N)cc2)nn1 [SULFAMETHOXYPYRIDAZINE]"
cat = "Not met"

[[record]]
molecule = "CC[C@H](C)C(=O)O[C@H]1C[C@H](O)C=C2C=C[C@H](C)[C@H](CC[C@@H](O)C[C@@H](O)CC(=O)O)[C@H]21 [PRAVASTATIN]"
cat = "Met"

[[record]]
molecule = "C[C@]12C=CC(=O)C=C1CC[C@@H]1[C@@H]2[C@@H](O)C[C@@]2(C)[C@H]1CC[C@]2(O)C(=O)CO [PREDNISOLONE]"
cat = "Met"

[[record]]
molecule = "CC(C)(Oc1ccc(CCNC(=O)c2ccc(Cl)cc2)cc1)C(=O)O [BEZAFIBRATE]"
cat = "Met"

[[record]]
molecule = "CN1Cc2c(N)cccc2C(c2ccccc2)C1 (stereo not shown) [NOMIFENSINE]"
cat = "Not met"

[[record]]
molecule = "C[C@]12CC[C@@H]3c4ccc(O)cc4CC[C@H]3[C@@H]1C[C@@H](O)[C@@H]2O [ESTRIOL]"
cat = "Not met"

[[record]]
molecule = "CC(C(=O)O)c1ccc(-c2ccccc2)c(F)c1 (stereo not shown) [FLURBIPROFEN]"
cat = "Not met"

[[record]]
molecule = "COc1ccc(CN(CCN(C)C)c2ccccn2)cc1 [PYRILAMINE]"
cat = "Not met"


---

Study target: LmjIPCS (inositol phosphorylceramide synthase from L. major) (Leishmania major, UniProt E9AFX2)
Sequence (E9AFX2 1-338): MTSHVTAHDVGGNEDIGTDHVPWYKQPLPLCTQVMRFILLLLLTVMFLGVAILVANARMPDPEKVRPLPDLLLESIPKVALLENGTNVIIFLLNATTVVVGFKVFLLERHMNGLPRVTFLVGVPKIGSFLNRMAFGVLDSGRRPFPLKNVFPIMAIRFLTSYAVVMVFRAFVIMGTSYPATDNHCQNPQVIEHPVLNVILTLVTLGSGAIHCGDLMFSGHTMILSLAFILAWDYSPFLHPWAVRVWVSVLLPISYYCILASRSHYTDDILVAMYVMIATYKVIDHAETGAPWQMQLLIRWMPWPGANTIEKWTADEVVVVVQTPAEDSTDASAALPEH
Assay comment: biochemical
Assay type: biochemical
Parameters: dose or concentration left out as unconfirmed
Condition info: NINDS set screen; read-out: inhibition LmjIPCS
Some compounds, each annotated with its measured inhibition.
Measurement name: inhibition (%)

[[record]]
compound = "C=CCSCC1Nc2cc(Cl)c(S(N)(=O)=O)cc2S(=O)(=O)N1 (stereo not shown) [ALTHIAZIDE]"
measurement_name = "inhibition"
readout_units = "%"
measured_number = 11

[[record]]
compound = "CCN(CC)CCNC(=O)COc1ccc(OC)cc1 [MEFEXAMIDE]"
measurement_name = "inhibition"
readout_units = "%"
measured_number = 13

[[record]]
compound = "CO/N=C(\\C(=O)N[C@@H]1C(=O)N2C(C(=O)O)=C(COC(N)=O)CS[C@H]12)c1ccco1"
measurement_name = "inhibition"
readout_units = "%"
measured_number = 16

[[record]]
compound = "O=C(O)c1cn(-c2ccc(F)cc2)c2cc(N3CCNCC3)c(F)cc2c1=O"
measurement_name = "inhibition"
readout_units = "%"
measured_number = 18

[[record]]
compound = "O=C(O)c1ccccc1OP(=O)(O)O"
measurement_name = "inhibition"
readout_units = "%"
measured_number = 13

[[record]]
compound = "C=CCSCC=C [DIALLYL SULFIDE]"
measurement_name = "inhibition"
readout_units = "%"
measured_number = 17

[[record]]
compound = "CCCCOC(=O)c1ccc(N)cc1"
measurement_name = "inhibition"
readout_units = "%"
measured_number = 14

[[record]]
compound = "C[C@H]1C[C@@H]2[C@H]([C@@H](O)C[C@@]3(C)[C@H]2CC[C@]3(O)C(=O)CO)[C@@]2(C)C=CC(=O)C=C12"
measurement_name = "inhibition"
readout_units = "%"
measured_number = 16

[[record]]
compound = "CC1(C)O[C@@H]2[C@@H](CO[C@@]3(COS(N)(=O)=O)OC(C)(C)O[C@@H]23)O1 [TOPIRAMATE]"
measurement_name = "inhibition"
readout_units = "%"
measured_number = 16

[[record]]
compound = "Clc1ccc(C(OCCN2CCCCC2)c2ccccc2)cc1 (stereo not shown)"
measurement_name = "inhibition"
readout_units = "%"
measured_number = 13

